# PROTOCOL NOTES: Drug uptake in C57BL/6 mouse harderian glands at 10 mg/kg, po after 6 hrs
# Type: ADME, organism-based, C57BL6, Harderian gland
# Set-up: dose 10 mg/kg, route oral
# CONDITION SUMMARY: read-out: Drug uptake
PARAMETER: concentration at 6 h

>>> value_reported("NC(=O)c1cn(Cc2cc(Br)c(Br)c(Br)c2)nn1")
"6.63 µM"

====

# PROTOCOL NOTES: Drug uptake in C57BL/6 mouse skin at 10 mg/kg, po after 6 hrs
# Format: ADME, organism-based, C57BL6, Zone of skin
# Parameters: dose 10 mg/kg, route oral
# CONDITION SUMMARY: read-out: Drug uptake
PARAMETER: concentration at 6 h

>>> value_reported("NC(=O)c1cn(Cc2cc(Br)c(Br)c(Br)c2)nn1")
"740 nM"
